# System: ACHN renal
# test: NCI-60 one-dose screen, 48 h
# conditions: 10 µM unless noted
The panel holds about 83,000 compounds, 20% with a hit somewhere; the sample as a whole holds those more often. Activity calls are given as the source filed them. How the source made its calls: active means growth percent below 10; inactive means the rest.
Outcomes: active, inactive

[[record]]
compound = "COc1ccc(C2C=C(c3ccc(Cl)cc3)N=C3SC=CN32)cc1 (stereo not given)"
answer_label = "inactive"

[[record]]
compound = "COc1ccc2nc(C)cc(Nc3ccccc3O)c2c1"
answer_label = "active"

[[record]]
compound = "Cc1[nH]nc2ccc3nc(-c4ccc5[nH]ncc5c4)c4c(c3c12)CCCC4"
answer_label = "active"

[[record]]
compound = "Cc1cc(-c2nnc(/C=C/c3ccc4c(c3)OCO4)o2)n[nH]1"
answer_label = "inactive"

[[record]]
compound = "C=C(C)[C@@H]1CC[C@]2(C)[C@H](CC=C3[C@@H]4C[C@](C)(C(=O)N5CCN(C)CC5)CC[C@]4(C)CC[C@]32C)[C@@]1(C)CCC#N"
answer_label = "inactive"

[[record]]
compound = "COCCCNCC(=O)Nc1c(C)cccc1C"
answer_label = "inactive"

[[record]]
compound = "COc1cc(C2CC(c3cccc(Nc4ccnc5cc(Cl)ccc45)c3)=NN2c2ccccc2)cc(OC)c1OC (stereo not given)"
answer_label = "inactive"

[[record]]
compound = "COc1ccc(-c2oc(=O)ccc2-c2cc(OC)c(OC)c(OC)c2)cc1F"
answer_label = "inactive"

[[record]]
compound = "O=NN(CC(=O)NNc1ccccc1)CC(=O)NNc1ccccc1"
answer_label = "inactive"

[[record]]
compound = "CC1=NOCC(=O)N1"
answer_label = "inactive"


---

# System: CCRF-CEM leukemia
# test: NCI-60 one-dose screen, 48 h (100 = growth as untreated, 0 = no growth, -100 = all killed)
# conditions: 10 µM unless noted
This is part of a sample that, as a whole, favours compounds with a hit. Of some 83,000 tested, about 20% had one in any assay.
Catalogue of growth values
parameter measured: growth (%)

[[record]]
molecule = "O=c1[nH]c2ccccc2n2cc3cccnc3c12"
unit = "%"
endpoint_result = 74.5

[[record]]
molecule = "Nc1nc2ccc([C@@H]3Nc4ccc5[nH]ncc5c4[C@H]4[C@H]5CCC(C5)[C@H]43)cc2s1"
unit = "%"
endpoint_result = 21.2

[[record]]
molecule = "O=C(OCc1ccc2c(Br)cc(Br)c(O)c2n1)c1cc2ccccc2[nH]1"
unit = "%"
endpoint_result = 2.81

[[record]]
molecule = "Cc1ccc2nc(CN(CCN(Cc3nc4ccc(C)cc4[nH]3)Cc3nc4ccc(C)cc4[nH]3)Cc3nc4ccc(C)cc4[nH]3)[nH]c2c1"
unit = "%"
endpoint_result = -61.7

[[record]]
molecule = "Nc1ccc(N(O)/C=C2\\C=CC=CC2=O)cc1N"
unit = "%"
endpoint_result = 57.6

[[record]]
molecule = "C/C(=N\\NC(=S)N1CCCCC1)c1ccccn1"
unit = "%"
endpoint_result = 8.62

[[record]]
molecule = "COc1ccc(-c2nnc(SCC(=O)Nc3ccc(C(=O)/C=C/c4ccc(Cl)cc4)cc3)n2-c2ccccc2)cc1"
unit = "%"
endpoint_result = 86.5

[[record]]
molecule = "CCCCN(CCCC)CCCN=c1nc2c(c(N)n1-c1ccccc1)c(=S)n(-c1ccccc1)c(=S)n2-c1ccccc1"
unit = "%"
endpoint_result = -78.4

[[record]]
molecule = "C#CC[C@@H]1C[C@]2(C)[C@H]3CC[C@@H]4[C@H]5C(C(=C)C)CC[C@]5(C(=O)NCCCCN)CC[C@@]4(C)[C@]3(C)CC[C@H]2C(C)(C)[C@H]1OC(C)=O (some centres not stated)"
unit = "%"
endpoint_result = -11

[[record]]
molecule = "C#CC[C@@H]1C[C@]2(C)[C@H]3CC[C@@H]4[C@H]5C(C(=C)C)CC[C@]5(C(=O)NCCCN5CCN(CCCN)CC5)CC[C@@]4(C)[C@]3(C)CC[C@H]2C(C)(C)[C@H]1OC(C)=O (some centres not stated)"
unit = "%"
endpoint_result = -29.6

[[record]]
molecule = "O=C1C=CC(=O)N1CO"
unit = "%"
endpoint_result = 101

[[record]]
molecule = "COC(=O)c1ccc(NC(N)=NCCC(C)(C)c2ccc(C(F)(F)F)cc2)nc1"
unit = "%"
endpoint_result = 34.2

[[record]]
molecule = "COc1ccc(Sc2[nH]c(C=O)c3ccccc23)cc1"
unit = "%"
endpoint_result = 0.79

[[record]]
molecule = "Clc1ccc2c(c1)-n1cccc1C(c1ccc3ccccc3c1)=NC2"
unit = "%"
endpoint_result = 84.6

[[record]]
molecule = "CC(=O)c1cc(C(=O)c2ccc3c(c2)Sc2ccccc2N3)c2c(C)cccn12"
unit = "%"
endpoint_result = 16.3

[[record]]
molecule = "Cc1cc(C#Cc2ccccc2)ccc1-n1c(/C=C/c2ccc(F)cc2)nc2ccccc2c1=O"
unit = "%"
endpoint_result = 74.3

[[record]]
molecule = "Cc1cc(NC(=O)C2c3ccccc3C(=O)N(CC(C)C)C2c2cccs2)no1 (configuration not stated)"
unit = "%"
endpoint_result = -13

[[record]]
molecule = "CCOC(=O)c1ccc(N(CCC(=O)O)C(C)=O)cc1"
unit = "%"
endpoint_result = 98.3

[[record]]
molecule = "CCCCCc1c(C)[nH]c(/C=C2\\N=C(c3ccc[nH]3)C=C2CC)c1C"
unit = "%"
endpoint_result = -58.3

[[record]]
molecule = "CN1CCN(Cc2ccc(NC(=O)c3cncc(C#Cc4ncc5ccccn45)c3)cc2C(F)(F)F)CC1"
unit = "%"
endpoint_result = 8.69

[[record]]
molecule = "Cc1cc(Cl)c2ccc(N(C)C)cc2n1"
unit = "%"
endpoint_result = 95.9

[[record]]
molecule = "CSC(=S)N/N=C(\\C)c1ccccn1"
unit = "%"
endpoint_result = 7.65

[[record]]
molecule = "NC(=O)Nc1ccc2ncnc(Nc3cccc(O)c3)c2c1"
unit = "%"
endpoint_result = 108

[[record]]
molecule = "COc1c(B(O)O)cccc1-c1nc2c(F)cc3n[nH]c(C)c3c2c2c1CCCC2"
unit = "%"
endpoint_result = 17.7

[[record]]
molecule = "Cc1n(Cc2ccc3ccccc3n2)cc[n+]1Cc1ccc2ccccc2n1"
unit = "%"
endpoint_result = 76.2

[[record]]
molecule = "CCOCC(O)(c1ccc(Cl)cc1)c1ccc(Cl)cc1"
unit = "%"
endpoint_result = 96.1

[[record]]
molecule = "CC(C)[C@H](CN)NC[C@H](C)NS(=O)(=O)c1ccc(C(C)(C)C)cc1"
unit = "%"
endpoint_result = 91.5

[[record]]
molecule = "CNCc1ccccc1CN(CC(=O)Nc1ccc2c(c1)CC1(C2)C(=O)Nc2ncccc21)C(=O)C(C)(C)C (configuration not stated)"
unit = "%"
endpoint_result = 116

[[record]]
molecule = "Cc1cc(O)ccc1C1=NN(c2ccc(S(N)(=O)=O)cc2)C(=O)CC1"
unit = "%"
endpoint_result = 46.2

[[record]]
molecule = "COc1cc(C)cc2oc3oc(=O)c(-c4csc(-c5cc6ccccc6oc5=O)n4)cc3c(=O)c12"
unit = "%"
endpoint_result = 105

[[record]]
molecule = "COc1ccc(-c2cnc3ccnn3c2-c2cc(OC)c(OC)c(OC)c2)cc1"
unit = "%"
endpoint_result = 16.3

[[record]]
molecule = "COc1cc2c(cc1OC)C(=O)C(Br)CC2 (configuration not stated)"
unit = "%"
endpoint_result = 3.35

[[record]]
molecule = "COc1ccc(Nc2ncnc3c2sc2nc(C)cc(C)c23)cc1"
unit = "%"
endpoint_result = 104

[[record]]
molecule = "O=c1cc(-c2ccc3c(c2)OCCO3)oc2cc(Cl)ccc12"
unit = "%"
endpoint_result = 97

[[record]]
molecule = "Nc1n[nH]c2ccc([C@@H]3Nc4c(F)cc5[nH]ncc5c4[C@H]4C5CCC(C5)[C@@H]34)cc12 (some centres not stated)"
unit = "%"
endpoint_result = 18.1

[[record]]
molecule = "O=C1OCC2=C1C(c1ccc(Cl)c(Cl)c1)c1cc3c(cc1N2CCO)CCC3 (configuration not stated)"
unit = "%"
endpoint_result = 10.6

[[record]]
molecule = "CC1=C(O)C(=O)C(c2c(C)cc(C)c(Br)c2C)=C(O)C1=O"
unit = "%"
endpoint_result = 43.1

